The values you see were collected from PubChem BioAssay (NCI).

system: OVCAR-3 ovarian; assay: NCI-60 one-dose screen, 48 h; conditions: 10 µM unless noted
This is part of a sample that, as a whole, favours compounds with a hit. Of some 83,000 tested, about 20% had one in any assay. Calls of active or inactive are those of the source. How the source made its calls: active means growth percent below 10; inactive means the rest.
Possible outcomes: active, inactive

{"compound": "C/C(=C\\c1ccc2ccccc2c1)[N+](=O)[O-]", "assignedLabel": "active"}
{"compound": "CCCCCCCCCCCCCCCCCCOP(=O)(O)O", "assignedLabel": "inactive"}
{"compound": "O=C(O)CS(=O)c1ccc(Cl)cc1 (stereo unspecified)", "assignedLabel": "inactive"}
{"compound": "Cc1cc(CSc2ccc(Cl)cc2)ccc1N", "assignedLabel": "inactive"}
{"compound": "Clc1ccc(N/N=C/c2ccccn2)nc1", "assignedLabel": "inactive"}
{"compound": "CCC(C)[C@H](NC(=O)Nc1cc(C(F)(F)F)cc(C(F)(F)F)c1)C(=O)N[C@@H](Cc1cn(C)cn1)C(=O)OC (stereo partly specified)", "assignedLabel": "active"}
{"compound": "COc1ccc(/C(=C(\\c2ccccc2)[N+](=O)[O-])c2ccc(OCCN3CCCC3)cc2)cc1", "assignedLabel": "inactive"}
{"compound": "Cc1ccc(NCc2cn(-c3ccc(C(=O)O)cc3)nc2-c2ccc(C(=O)O)cc2)cc1", "assignedLabel": "inactive"}
{"compound": "CCCCn1c(Cc2ccc(OC)cc2)nc2cc(OC)c(OC)cc2c1=O", "assignedLabel": "inactive"}
{"compound": "COc1cc(CCNc2cnc3cc(N)cc(N)c3n2)cc(OC)c1", "assignedLabel": "inactive"}
{"compound": "O=C(OCC1CC2(Cl)C(Cl)=C(Cl)C1(Cl)C2(Cl)Cl)C1C(C(=O)OCC2CC3(Cl)C(Cl)=C(Cl)C2(Cl)C3(Cl)Cl)C2(Cl)C(Cl)=C(Cl)C1(Cl)C2(Cl)Cl (stereo unspecified)", "assignedLabel": "inactive"}
{"compound": "CC1Cc2cc(F)ccc2-n2cccc21 (stereo unspecified)", "assignedLabel": "inactive"}
{"compound": "COC(=O)c1cc(=O)nc(N/N=C/c2ccccc2O)s1", "assignedLabel": "inactive"}
{"compound": "O=C(Nc1ccc(-n2cc(-c3ccncc3)c(-c3ccc(Cl)c(O)c3)n2)cc1)c1ccc(Cl)c(C(F)(F)F)c1", "assignedLabel": "active"}
{"compound": "O=C1C(=O)c2ccccc2C(O)=C1CCCc1ccc(Oc2ccccc2)cc1", "assignedLabel": "inactive"}
{"compound": "CC1=C(C)C(=O)C(C(C)C2=C(C)C(=O)C(C)=C(C)C2=O)=C(C)C1=O", "assignedLabel": "inactive"}
{"compound": "COC(=O)C1CC(=O)N(C(=O)Nc2ccc(Cl)cc2Cl)C1 (stereo unspecified)", "assignedLabel": "inactive"}
{"compound": "COCC(=O)NNc1[nH]c(-c2ccc(OC)cc2)cc1C#N", "assignedLabel": "inactive"}
{"compound": "O=C(/C=C/c1cccc(O)c1)c1cccc(-n2cc(-c3ccc(Cl)cc3)[nH]c2=O)c1", "assignedLabel": "active"}
{"compound": "Nc1nc(-c2cccc(Br)c2)cc(-c2cc3ccccc3oc2=O)n1", "assignedLabel": "inactive"}
{"compound": "COC(=O)[C@@H]1[C@H](O)[C@H](C)[C@H](O)[C@H](C)/C=C\\C=C(C)C(=O)Nc2c(C)c(OC(C)=O)c3c(c2O)C(=O)C(C)=C2OCOC(=C23)C(C)=C[C@@](C)(O)[C@H](O)[C@@H](C)[C@H]1OC(C)=O", "assignedLabel": "inactive"}
{"compound": "CCCCCCCCCCC1OC(C)CC(C)O1 (stereo unspecified)", "assignedLabel": "inactive"}
{"compound": "CCCCN(CCC)CCCCCCCCCCN1CCCc2ccccc21", "assignedLabel": "inactive"}
{"compound": "Oc1ccccc1/C=N/N=C/c1c(O)ccc2ccccc12", "assignedLabel": "inactive"}
{"compound": "CC1(c2ccc(Br)cc2)NC(=O)NC1=O (stereo unspecified)", "assignedLabel": "inactive"}
{"compound": "C#CCCCCCCC[C@@H]1OC(=O)[C@H]([C@@H](C)CC)NC(=O)[C@@H]([C@@H](C)CC)NC(=O)CC(=O)[C@@H]1C", "assignedLabel": "inactive"}
{"compound": "C[C@@H](c1ccc2c(c1)[nH]c1ccc(Cl)cc12)c1nc2ccccc2[nH]1", "assignedLabel": "inactive"}
{"compound": "NC(=O)c1c(Nc2ccccc2)nn2cc(-c3nc4ccccc4s3)c(N)nc12", "assignedLabel": "inactive"}
{"compound": "COc1cc(-c2cc3cnccc3c3nc(N)c4ccncc4c23)cc(OC)c1OC", "assignedLabel": "inactive"}
{"compound": "COc1ccc2nc3cc(Cl)ccc3c(NCCCNC(C)=O)c2c1", "assignedLabel": "inactive"}
{"compound": "O=C(C(=O)N1CCOCC1)c1ccc(O[C@H]2O[C@H](CO)[C@@H](O)[C@H](O)[C@@H]2O)cc1", "assignedLabel": "inactive"}

###

test system: SR leukemia; assay: NCI-60 one-dose screen, 48 h; settings: 10 µM unless noted
About 83,000 compounds went through this panel and 20% of them were active in at least one assay; those are over-represented in the sample as a whole. The source made the active and inactive calls. The calls were made as follows: active = growth percent below 10; inactive = the rest.
Possible outcomes: active, inactive

{"compound": "C=C(C)[C@@H]1CC[C@]2(COC(=O)c3ccccc3C(=O)O)CC[C@]3(C)[C@H](CC[C@@H]4[C@@]5(C)CCCNC(C)(C)[C@@H]5CC[C@]43C)[C@@H]12", "assignedLabel": "active"}
{"compound": "O=C(Oc1ccccc1)c1ccccc1Cl", "assignedLabel": "inactive"}
{"compound": "N=C(N)N=Nc1ccc(NN=C(N)N)c2ccccc12", "assignedLabel": "inactive"}
{"compound": "CCCCCCC(C(=O)OCC)(C(=O)OCC)C1CCCCCC1", "assignedLabel": "inactive"}
{"compound": "O=c1c2c(c3ccccc3n1-c1ccccc1)NC(=S)NC2c1ccccc1 (configuration not stated)", "assignedLabel": "inactive"}
{"compound": "COCn1c(C(=O)OC)cc2oc(/C=C3/SC(=S)N(N)C3=O)cc21", "assignedLabel": "inactive"}
{"compound": "COc1cc(/C=C/C(=O)/C=C(/C=C/c2ccc(OC(C)=O)c(OC)c2)OB(F)F)ccc1OC(C)=O", "assignedLabel": "active"}
{"compound": "COc1ccccc1Cn1cc2c(c1)-c1oncc1CC2", "assignedLabel": "inactive"}
{"compound": "COC(=O)c1ccc2[nH]c(O)c(C(=Nc3ccc(N(C)C(=O)CN4CCN(C)CC4)cc3)c3ccc(N)cc3)c2c1", "assignedLabel": "active"}
{"compound": "CCN(CC)c1ccc2nc3ccc(N=Nc4ccc(O)cc4)cc3[n+](-c3ccccc3)c2c1", "assignedLabel": "inactive"}
{"compound": "Cc1ccccc1-n1c(C)nc2cc(NC(=O)c3ccc(Cl)cc3)ccc2c1=O", "assignedLabel": "inactive"}
{"compound": "Cc1nc(N)sc1C(=O)NCCO", "assignedLabel": "inactive"}
{"compound": "CC[N+](C)(C)N", "assignedLabel": "inactive"}
{"compound": "CNCCCNCCCCNCCCN1C(=O)c2ccc3c4c(ccc(c24)C1=O)C(=O)N(CCCNCc1ccccc1OC)C3=O", "assignedLabel": "inactive"}
{"compound": "CC(C)(C)c1ccc([I+]c2ccc(C(C)(C)C)cc2)cc1", "assignedLabel": "active"}
{"compound": "CCCCCCNc1nc(N2CCOCC2)c2[nH]c(NCCCCCC)nc2n1", "assignedLabel": "active"}
{"compound": "COc1ccc(C(=O)NCCNc2nccc(-c3c(-c4ccc(F)cc4)nc4sccn34)n2)cc1", "assignedLabel": "inactive"}

###

tested on: KM12 colon; assay: NCI-60 one-dose screen, 48 h; details: 10 µM unless noted
Compounds without any hit were thinned out: in the full panel of roughly 83,000, 20% have a hit. Active and inactive are the calls of the source. How the source made its calls: active means growth percent below 10; inactive means the rest.
Outcome codes: active, inactive

{"compound": "CCOC(=O)NC1=NCC(C)(C)S1", "assignedLabel": "inactive"}
{"compound": "Cc1ccc(C(=O)C(Br)C(Br)c2ccccc2)cc1 (stereo unspecified)", "assignedLabel": "inactive"}
{"compound": "N=C(N)N=Nc1ccc(NN=C(N)N)cc1", "assignedLabel": "inactive"}
{"compound": "COC(=O)c1cc(O)c2cc3c(cc2c1-c1cc(OC)c(OC)c(OC)c1)OCO3", "assignedLabel": "inactive"}
{"compound": "CCCCCCCCc1ccc(CCC(N)(CO)CO)cc1", "assignedLabel": "active"}
{"compound": "CSCc1ncc(-c2ccc(C(F)(F)F)cc2)c(NC2CCCCCC2)n1", "assignedLabel": "inactive"}
{"compound": "COc1ccc2cc(C(C)C(=O)Nc3ccc(S(=O)(=O)Nc4cc(C)on4)cc3)ccc2c1 (stereo unspecified)", "assignedLabel": "inactive"}
{"compound": "CC(C)(C)C(=O)CCCCCCCC/C=C/CCCC(O)c1ccco1 (stereo unspecified)", "assignedLabel": "inactive"}
{"compound": "Ic1ccc(SSc2ccc(I)cc2)cc1", "assignedLabel": "inactive"}
{"compound": "COc1cc(N2C(=O)C=CC2=O)ccc1N1C(=O)C=CC1=O", "assignedLabel": "inactive"}
{"compound": "COc1ccc2nc3cc(Cl)ccc3c(NCCCNC(C)=O)c2c1", "assignedLabel": "inactive"}
